So I've got a bunch of molecules here, and I need their GI50 values.
targetDesc: BaF3_HER2YVMA cells (Homo sapiens, UniProt P04626, DUP772-775, cells depend on it)
Sequence (P04626 with tags, fused parts or gaps DUP772-775): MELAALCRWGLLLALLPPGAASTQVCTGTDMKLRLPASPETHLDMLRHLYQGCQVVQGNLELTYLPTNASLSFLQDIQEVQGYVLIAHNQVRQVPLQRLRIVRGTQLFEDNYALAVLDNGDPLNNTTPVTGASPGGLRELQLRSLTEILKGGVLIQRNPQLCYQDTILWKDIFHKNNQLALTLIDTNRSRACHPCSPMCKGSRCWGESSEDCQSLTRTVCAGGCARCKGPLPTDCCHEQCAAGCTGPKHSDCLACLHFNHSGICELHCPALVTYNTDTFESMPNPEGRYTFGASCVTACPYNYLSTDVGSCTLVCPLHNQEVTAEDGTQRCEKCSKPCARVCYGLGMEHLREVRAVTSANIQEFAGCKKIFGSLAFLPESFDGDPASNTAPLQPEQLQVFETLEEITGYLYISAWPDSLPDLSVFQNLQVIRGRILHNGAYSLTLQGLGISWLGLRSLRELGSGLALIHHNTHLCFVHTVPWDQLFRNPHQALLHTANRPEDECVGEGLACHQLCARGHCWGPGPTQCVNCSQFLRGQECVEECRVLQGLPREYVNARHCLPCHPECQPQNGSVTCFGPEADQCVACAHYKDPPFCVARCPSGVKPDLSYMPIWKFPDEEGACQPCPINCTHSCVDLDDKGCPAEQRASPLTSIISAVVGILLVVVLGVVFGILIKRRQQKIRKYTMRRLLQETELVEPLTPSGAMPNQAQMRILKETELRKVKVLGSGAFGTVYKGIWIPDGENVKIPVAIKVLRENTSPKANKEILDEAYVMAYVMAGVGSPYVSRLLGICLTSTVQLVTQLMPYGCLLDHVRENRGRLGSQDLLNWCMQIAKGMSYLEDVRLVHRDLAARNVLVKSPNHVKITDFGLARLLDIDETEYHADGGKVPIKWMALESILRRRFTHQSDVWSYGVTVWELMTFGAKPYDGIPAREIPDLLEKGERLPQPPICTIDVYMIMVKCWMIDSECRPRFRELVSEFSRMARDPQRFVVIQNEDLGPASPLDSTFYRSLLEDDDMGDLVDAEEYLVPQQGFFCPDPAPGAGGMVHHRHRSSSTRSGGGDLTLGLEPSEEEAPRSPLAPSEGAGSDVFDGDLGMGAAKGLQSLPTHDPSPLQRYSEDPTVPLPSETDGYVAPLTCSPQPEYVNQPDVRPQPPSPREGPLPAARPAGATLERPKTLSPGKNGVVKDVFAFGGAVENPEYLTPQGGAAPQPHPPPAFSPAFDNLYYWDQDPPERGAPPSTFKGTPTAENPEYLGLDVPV
experimentalDetails: Cell growth inhibition assay (CellTiterGlo), BaF3_HER2YVMA
Assay type: cell-based
measurementSetup: 3-day treatment, CellTiterGlo, read-out: Cell growth inhibition activity, HER2 - YVMA

INPUT: What GI50 value was documented for this molecule, Cc1cc(Nc2ncnn3ccc(C4CN(C(=O)/C=C/CN5CCC5)C4)c23)ccc1Oc1ccn2ncnc2c1 ?
OUTPUT: 1500 to 5000 nM

INPUT: What value of GI50 has been reported for the following molecule? Cc1cc(Nc2ncnn3cnc(C4CCN(C(=O)/C=C/CN(C)C)CC4)c23)ccc1Oc1ccn2ncnc2c1
OUTPUT: 1500 to 5000 nM

INPUT: What does the record list as GI50 for Cc1cc(Nc2ncnn3ccc(C4CCN(C(=O)CCCN(C)C)CC4)c23)ccc1Oc1ccn2ncnc2c1 ?
OUTPUT: 1500 to 5000 nM

INPUT: Which GI50 value is on record for Cc1cc(Nc2ncnn3ccc(N4CCCC(N(C)C(=O)/C=C/CN(C)C)C4)c23)ccc1Oc1ccn2ncnc2c1 (centres unmarked) ?
OUTPUT: < 200 nM

INPUT: Bench note: what GI50 did Cc1cc(Nc2ncnn3ccc(C4CN(C(=O)/C=C/C5CCCN5C)C4)c23)ccc1Oc1ccn2ncnc2c1 (centres unmarked) show?
OUTPUT: < 200 nM

Provenance of the data: patent US20240132521A1
